Target system: human Nav1.7 (Homo sapiens (Human))
Method description: FRET-based membrane potential assay, recombinant human sodium channel Nav1.7
Test conditions: HEK293 cells stably expressing recombinant human Nav1.7; depolarization with veratridine (EC80) + scorpion venom
Quantity kind: pIC50
Scale: negative log10 of molar concentration, which is what pIC50 denotes.

Example results:
>>> measured_number("CCc1nc(CN2CCN(c3cccc4c3cnn4-c3ccccc3F)C2=O)cs1")
5.94
>>> measured_number("O=C(CN1CCN(c2cccc3c2cnn3-c2ccccc2F)C1=O)c1cccnc1")
5.65
>>> measured_number("O=C1N(c2cccc3c2cnn3-c2ccccc2F)CCN1C1CN(S(=O)(=O)CC(F)(F)F)C1")
5.61

From here, focus on the item given below.
Entry "O=C1N(Cc2cc(C(F)(F)F)ccn2)CCN1c1cccc2c1cnn2-c1ccccc1F" ; pIC50 = 5.62

###

Target system: human Nav1.7 (Homo sapiens (Human), UniProt Q15858)
Sequence (Q15858 whole entry): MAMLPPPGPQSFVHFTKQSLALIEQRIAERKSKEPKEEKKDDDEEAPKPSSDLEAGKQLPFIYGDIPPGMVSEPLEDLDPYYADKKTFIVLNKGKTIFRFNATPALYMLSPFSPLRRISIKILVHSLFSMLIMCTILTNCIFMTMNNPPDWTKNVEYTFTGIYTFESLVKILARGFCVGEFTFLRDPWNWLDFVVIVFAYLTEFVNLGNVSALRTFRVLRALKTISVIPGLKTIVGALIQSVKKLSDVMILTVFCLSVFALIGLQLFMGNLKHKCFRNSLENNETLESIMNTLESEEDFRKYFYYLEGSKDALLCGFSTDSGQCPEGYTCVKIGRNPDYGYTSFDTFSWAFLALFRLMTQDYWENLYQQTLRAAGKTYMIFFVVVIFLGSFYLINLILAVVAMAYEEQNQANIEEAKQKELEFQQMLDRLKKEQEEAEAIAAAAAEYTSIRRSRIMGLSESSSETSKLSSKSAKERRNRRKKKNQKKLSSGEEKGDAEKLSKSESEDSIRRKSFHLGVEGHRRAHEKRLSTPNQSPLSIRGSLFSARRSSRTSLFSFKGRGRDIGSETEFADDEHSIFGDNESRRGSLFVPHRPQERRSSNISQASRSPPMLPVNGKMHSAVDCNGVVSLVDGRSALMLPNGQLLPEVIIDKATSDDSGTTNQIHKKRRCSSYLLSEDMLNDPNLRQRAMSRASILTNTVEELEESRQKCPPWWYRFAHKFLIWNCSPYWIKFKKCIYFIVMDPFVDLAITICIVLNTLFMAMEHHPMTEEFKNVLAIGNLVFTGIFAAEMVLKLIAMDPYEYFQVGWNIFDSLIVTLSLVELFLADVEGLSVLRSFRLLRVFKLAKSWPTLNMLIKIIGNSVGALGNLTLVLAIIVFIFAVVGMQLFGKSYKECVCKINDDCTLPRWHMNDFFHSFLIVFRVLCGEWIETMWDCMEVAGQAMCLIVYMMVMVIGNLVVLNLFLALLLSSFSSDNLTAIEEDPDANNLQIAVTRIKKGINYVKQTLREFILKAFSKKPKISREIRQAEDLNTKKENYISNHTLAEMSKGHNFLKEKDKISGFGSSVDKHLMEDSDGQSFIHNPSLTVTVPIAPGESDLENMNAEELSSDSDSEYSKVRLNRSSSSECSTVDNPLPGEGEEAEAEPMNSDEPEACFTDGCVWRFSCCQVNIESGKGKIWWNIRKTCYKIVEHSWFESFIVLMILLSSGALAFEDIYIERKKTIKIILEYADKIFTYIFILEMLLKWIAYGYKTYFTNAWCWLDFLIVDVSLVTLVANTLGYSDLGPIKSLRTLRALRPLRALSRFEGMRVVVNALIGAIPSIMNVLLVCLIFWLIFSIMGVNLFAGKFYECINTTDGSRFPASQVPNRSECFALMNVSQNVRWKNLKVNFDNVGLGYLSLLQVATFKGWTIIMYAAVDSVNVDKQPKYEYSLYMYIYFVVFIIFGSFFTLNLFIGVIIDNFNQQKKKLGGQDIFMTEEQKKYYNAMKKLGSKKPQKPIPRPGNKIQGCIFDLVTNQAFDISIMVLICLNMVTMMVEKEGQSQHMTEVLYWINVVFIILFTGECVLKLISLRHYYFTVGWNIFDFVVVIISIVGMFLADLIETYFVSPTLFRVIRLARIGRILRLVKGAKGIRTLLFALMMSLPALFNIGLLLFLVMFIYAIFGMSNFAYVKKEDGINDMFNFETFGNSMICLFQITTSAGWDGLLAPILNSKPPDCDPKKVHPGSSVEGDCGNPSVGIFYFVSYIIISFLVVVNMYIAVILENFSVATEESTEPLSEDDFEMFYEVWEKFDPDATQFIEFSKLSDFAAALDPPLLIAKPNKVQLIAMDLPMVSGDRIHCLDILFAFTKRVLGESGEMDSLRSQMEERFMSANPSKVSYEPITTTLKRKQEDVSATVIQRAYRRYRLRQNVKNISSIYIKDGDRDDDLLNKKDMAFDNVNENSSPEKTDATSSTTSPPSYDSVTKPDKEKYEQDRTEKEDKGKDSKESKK
Method description: FRET-based membrane potential assay, recombinant human sodium channel Nav1.7
Format: cell-based
Test conditions: HEK293 cells stably expressing recombinant human Nav1.7; depolarization with veratridine (EC80) + scorpion venom
Consider the following compounds and their measured IC50 readings.
Answer in nM, number only, no unit symbol.

Example results:
>>> measured_number("O=C(CN1CCN(c2cccc3c2cnn3-c2ccccc2F)C1=O)C1CC1")
2930
>>> measured_number("CC(C)C(C)(O)CN1CCN(c2cccc3c2cnn3-c2ccccc2F)C1=O (stereo not drawn)")
3230
>>> measured_number("CC(C)CNC(=O)CN1CCN(c2cccc3c2cnn3-c2ccccc2F)C1=O")
1860
>>> measured_number("CC(C)(C)OC(=O)CCN1CCN(c2cccc3c2cnn3-c2ccccc2F)C1=O")
2710

Entry "O=C(CN1CCN(c2cccc3c2cnn3-c2ccccc2)C1=O)N1CCCC1" ; IC50 = 3060

Entry "Cc1nc(CN2CCN(c3cccc4c3cnn4-c3ccccc3F)C2=O)co1" ; IC50 = 1900

Entry "O=C1NCCN1c1cccc2c1cnn2-c1ccccc1F" ; IC50 = 9640

Entry "O=C1N(c2cccc3c2cnn3-c2ccccc2F)CCN1S(=O)(=O)C1CCCC1" ; IC50 = 2790

Entry O=C1N(CC2CC2(F)F)CCN1c1cccc2c1cnn2-c1ccccc1F (stereo not drawn) ; IC50 = 1020

###

Consider the following compounds and their measured pIC50 readings.
Target system: human Nav1.7 (Homo sapiens (Human))
Method description: FRET-based membrane potential assay, recombinant human sodium channel Nav1.7
Test conditions: HEK293 cells stably expressing recombinant human Nav1.7; depolarization with veratridine (EC80) + scorpion venom
Scale: negative log10 of molar concentration, which is what pIC50 denotes.

Example results:
>>> measured_number("O=C1C(N2CCN(c3cccc4c3cnn4-c3ccccc3F)C2=O)CCN1Cc1ccccc1 (stereo not drawn) [Example 232]")
5.94
>>> measured_number("O=C(CN1CCN(c2cccc3c2cnn3-c2ccccc2F)C1=O)N1CCC(F)(F)CC1 [Example 297]")
5.52
>>> measured_number("CN(CCN1CCOCC1)C(=O)CN1CCN(c2cccc3c2cnn3-c2ccccc2F)C1=O [Example 72]")
5.74
>>> measured_number("CC(C)(C)C(=O)CN1CCN(c2cccc3c2cnn3-c2ccccc2F)C1=O [Example 161]")
5.85
>>> measured_number("O=C1N(CC2COC2)CCN1c1cccc2c1cnn2-c1ccccc1F [Example 200]")
5.44

Entry Cc1csc(CN2CCN(c3cccc4c3cnn4-c3ccccc3F)C2=O)n1 [Example 24] ; pIC50 = 6.47

Entry O=C(CN1CCN(c2cccc3c2cnn3-c2ccccc2F)C1=O)N1C[C@H]2CCC[C@H]2C1 [Example 342] ; pIC50 = 5.66

Entry O=C(CN1CCN(c2cccc3c2cnn3-c2ccccc2F)C1=O)NC1CC(=NO)C1 (stereo not drawn) [Example 354] ; pIC50 = 5.19

Entry O=C1CC(NC(=O)CN2CCN(c3cccc4c3cnn4-c3ccccc3F)C2=O)C1 [Example 349] ; pIC50 = 4.82

Entry O=C1N(Cc2nnco2)CCN1c1cccc2c1cnn2-c1ccccc1F [Example 29] ; pIC50 = 5.66

Entry CCN(CC)C(=O)CN1CCN(c2cccc3c2cnn3-c2ccccc2F)C1=O [Example 93] ; pIC50 = 4.97

Entry Cc1nocc1CN1CCN(c2cccc3c2cnn3-c2ccccc2F)C1=O [Example 264] ; pIC50 = 5.47

Entry C[C@H]1CCN(C(=O)CN2CCN(c3cccc4c3cnn4-c3ccccc3F)C2=O)C1 [Example 90] ; pIC50 = 5.76

Entry O=C(CN1CCN(c2cccc3c2cnn3-c2ccccc2F)C1=O)N1CC(O)C1 [Example 291] ; pIC50 = 5.23

Entry CCc1cc(CN2CCN(c3cccc4c3cnn4-c3ccccc3F)C2=O)on1 [Example 45] ; pIC50 = 5.95

Entry CC1CN(C(=O)CN2CCN(c3cccc4c3cnn4-c3ccccc3F)C2=O)C1 [Example 352] ; pIC50 = 5.82

Entry Cc1noc(C)c1CN1CCCN(c2cccc3c2cnn3-c2ccccc2F)C1=O [Example 258] ; pIC50 = 4.96

Entry O=C1N(c2cccc3c2cnn3-c2ccccc2F)CCN1[C@@H]1CCOC1 [Example 32] ; pIC50 = 5.37

###

Target system: human Nav1.7 (Homo sapiens (Human))
Method description: FRET-based membrane potential assay, recombinant human sodium channel Nav1.7
Test conditions: HEK293 cells stably expressing recombinant human Nav1.7; depolarization with veratridine (EC80) + scorpion venom
Strictly below 1 µM in IC50: True. Otherwise: False.

>>> assigned_label("O=C1N(CC(O)C2CCC2)CCN1c1cccc2c1cnn2-c1ccccc1F (stereo not shown) [Example 165]")
"True"
>>> assigned_label("O=C1N(c2cccc3c2cnn3-c2ccccc2F)CCN1[C@H]1CO[C@@H](c2ccccc2F)C1 [Example 185]")
"True"
>>> assigned_label("CC(C)C(O)CN1CCN(c2cccc3c2cnn3-c2ccccc2F)C1=O (stereo not shown) [Example 163]")
"False"
>>> assigned_label("CCS(=O)(=O)N1CC(N2CCN(c3cccc4c3cnn4-c3ccccc3F)C2=O)C1 [Example 51]")
"False"
>>> assigned_label("CCC(O)(CC(C)C)CN1CCN(c2cccc3c2cnn3-c2ccccc2F)C1=O (stereo not shown) [Example 148]")
"False"
>>> assigned_label("O=C(CN1CCN(c2cccc3c2cnn3-c2ccccc2F)C1=O)N1CC2CCCC2C1 (stereo not shown) [Example 106]")
"True"

Just wondering, is IC50 of O=C1N(CC2CCCO2)CCN1c1cccc2c1cnn2-c1ccccc1F (stereo not shown) [Example 182] below 1 µM?
False

Just wondering, is IC50 of O=C(CN1CCN(c2cccc3c2cnn3-c2ccccc2F)C1=O)N1CCCC(C(F)(F)F)C1 (stereo not shown) [Example 300] below 1 µM?
False

Just wondering, is IC50 of CC(C)CCC(=O)N1CCN(c2cccc3c2cnn3-c2ccccc2F)C1=O [Example 76] below 1 µM?
False

###

Target system: human Nav1.8 (Homo sapiens (Human), UniProt Q9Y5Y9)
Sequence (Q9Y5Y9 whole entry): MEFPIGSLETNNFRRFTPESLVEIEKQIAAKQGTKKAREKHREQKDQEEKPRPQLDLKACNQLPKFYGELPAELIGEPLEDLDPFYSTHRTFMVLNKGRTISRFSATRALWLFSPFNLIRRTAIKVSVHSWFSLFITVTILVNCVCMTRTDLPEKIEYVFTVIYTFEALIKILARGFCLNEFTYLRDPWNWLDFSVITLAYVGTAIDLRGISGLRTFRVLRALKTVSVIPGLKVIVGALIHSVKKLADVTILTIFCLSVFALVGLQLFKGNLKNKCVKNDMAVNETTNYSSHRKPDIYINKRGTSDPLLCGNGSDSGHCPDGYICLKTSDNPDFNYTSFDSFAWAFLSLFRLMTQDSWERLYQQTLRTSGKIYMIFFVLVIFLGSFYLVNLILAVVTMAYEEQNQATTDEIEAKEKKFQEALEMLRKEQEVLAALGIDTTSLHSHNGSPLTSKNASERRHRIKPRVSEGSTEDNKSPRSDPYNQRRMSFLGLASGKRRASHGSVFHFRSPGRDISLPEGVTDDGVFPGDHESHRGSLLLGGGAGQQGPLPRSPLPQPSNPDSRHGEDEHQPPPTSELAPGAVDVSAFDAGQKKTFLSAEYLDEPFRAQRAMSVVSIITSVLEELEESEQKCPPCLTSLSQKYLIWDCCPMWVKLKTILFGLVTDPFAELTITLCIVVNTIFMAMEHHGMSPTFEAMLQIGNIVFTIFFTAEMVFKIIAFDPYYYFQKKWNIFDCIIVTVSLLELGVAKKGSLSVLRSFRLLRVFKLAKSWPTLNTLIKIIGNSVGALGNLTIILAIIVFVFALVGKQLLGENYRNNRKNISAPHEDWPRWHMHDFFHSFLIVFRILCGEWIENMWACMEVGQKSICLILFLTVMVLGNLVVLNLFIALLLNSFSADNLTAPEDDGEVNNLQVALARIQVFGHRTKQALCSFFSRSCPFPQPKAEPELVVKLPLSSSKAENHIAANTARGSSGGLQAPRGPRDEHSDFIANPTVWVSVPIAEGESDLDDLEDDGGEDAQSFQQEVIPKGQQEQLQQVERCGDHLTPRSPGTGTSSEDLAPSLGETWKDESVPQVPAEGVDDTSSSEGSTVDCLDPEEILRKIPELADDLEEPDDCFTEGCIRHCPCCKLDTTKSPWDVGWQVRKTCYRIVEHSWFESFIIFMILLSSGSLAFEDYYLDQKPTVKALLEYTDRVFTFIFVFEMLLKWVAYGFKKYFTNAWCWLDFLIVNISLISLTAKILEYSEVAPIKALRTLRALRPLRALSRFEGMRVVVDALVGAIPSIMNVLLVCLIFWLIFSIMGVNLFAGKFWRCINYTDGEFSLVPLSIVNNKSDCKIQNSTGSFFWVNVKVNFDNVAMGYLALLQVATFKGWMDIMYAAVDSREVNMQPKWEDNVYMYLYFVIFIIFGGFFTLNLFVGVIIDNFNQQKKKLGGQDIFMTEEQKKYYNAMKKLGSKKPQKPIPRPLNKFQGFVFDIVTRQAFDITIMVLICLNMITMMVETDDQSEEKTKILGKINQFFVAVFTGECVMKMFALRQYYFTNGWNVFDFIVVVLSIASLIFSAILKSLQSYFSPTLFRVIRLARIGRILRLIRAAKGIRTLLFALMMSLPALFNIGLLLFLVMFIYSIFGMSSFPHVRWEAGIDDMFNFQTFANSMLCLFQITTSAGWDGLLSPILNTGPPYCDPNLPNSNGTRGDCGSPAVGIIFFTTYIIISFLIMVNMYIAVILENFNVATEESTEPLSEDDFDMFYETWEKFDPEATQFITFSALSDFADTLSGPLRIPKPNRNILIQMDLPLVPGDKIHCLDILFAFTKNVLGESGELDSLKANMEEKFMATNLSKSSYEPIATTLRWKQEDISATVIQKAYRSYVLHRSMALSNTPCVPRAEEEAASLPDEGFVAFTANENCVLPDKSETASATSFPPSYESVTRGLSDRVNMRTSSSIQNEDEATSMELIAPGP
Method description: FRET-based membrane potential assay, recombinant human sodium channel Nav1.8
Test conditions: HEK293 cells stably expressing recombinant human Nav1.8; depolarization with veratridine (EC80) + scorpion venom
Quantity kind: pIC50
Scale: negative log10 of molar concentration, which is what pIC50 denotes.

Example results:
>>> measured_number("O=C(CN1CCN(c2cccc3c2cnn3-c2cccc(OC(F)(F)F)c2)C1=O)N1CC[C@H](F)C1")
5.86
>>> measured_number("CC1CN(C(=O)CN2CCN(c3cccc4c3cnn4-c3ccccc3F)C2=O)C1")
5.59
>>> measured_number("O=C(CN1CCN(c2cccc3c2cnn3-c2ccccc2F)C1=O)N1CCCCC1")
5.75
>>> measured_number("O=C(CN1CCN(c2cccc3c2cnn3C2CCCCC2)C1=O)N1CC[C@H](F)C1")
4.74
>>> measured_number("CC1(F)CN(C(=O)CN2CCN(c3cccc4c3cnn4-c3ccccc3F)C2=O)C1")
6.14
>>> measured_number("O=C1CCN(C(=O)CN2CCN(c3cccc4c3cnn4-c3ccccc3F)C2=O)C1")
5.14
>>> measured_number("CCS(=O)(=O)N1CC(N2CCN(c3cccc4c3cnn4-c3ccccc3F)C2=O)C1")
5.94
>>> measured_number("O=C(CN1CCN(c2cccc3c2cnn3-c2ccccc2F)C1=O)N1CCC[C@@H](O)C1")
5.00
>>> measured_number("O=C(CN1CCN(c2cccc3c2cnn3-c2ccccc2F)C1=O)N1CCOCC1")
4.75
>>> measured_number("O=C(CN1CCN(c2cccc3c2cnn3-c2ccccc2F)C1=O)NC1CCC1")
5.72

Entry O=C(CN1CCN(c2cccc3c2cnn3-c2ccccc2F)C1=O)NC1CC(O)C1 (centres unmarked) ; pIC50 = 4.91

Entry "CC(C)CO[C@H]1CCC[C@H]1NC(=O)CN1CCN(c2cccc3c2cnn3-c2ccccc2F)C1=O" ; pIC50 = 6.07

###

Consider the following molecules and their measured IC50 readings.
Target system: human Nav1.7 (Homo sapiens (Human), UniProt Q15858)
Method description: FRET-based membrane potential assay, recombinant human sodium channel Nav1.7
Test conditions: HEK293 cells stably expressing recombinant human Nav1.7; depolarization with veratridine (EC80) + scorpion venom
Answer in nM, number only, no unit symbol.

Entry CON=C1CC(NC(=O)CN2CCN(c3cccc4c3cnn4-c3ccccc3F)C2=O)C1 (stereo not shown) ; IC50 = 9230

Entry C=CCCC(C)(O)CN1CCN(c2cccc3c2cnn3-c2ccccc2F)C1=O (stereo not shown) ; IC50 = 3120

Entry CC(C)C1CCCN1C(=O)CN1CCN(c2cccc3c2cnn3-c2ccccc2F)C1=O (stereo not shown) ; IC50 = 821

Entry "CC(C)CS(=O)(=O)N1CC(N2CCN(c3cccc4c3cnn4-c3ccccc3F)C2=O)C1" ; IC50 = 2520

Data credit: patent US9783527B2
